# System: female white mice
# ASSAY_INFO: animal or person
# RECORDED_CONDITIONS: Mus musculus, po, read-out: Muscle Tone ED50, Table III; oral, mice
# Experimental: Groups of five Carworth CF1 S female mice, 16-20 g each, were fasted 16-22 hours before use. […] ED50 values were calculated for each parameter including death (LD50). […] The observer gently strokes the abdominal musculature of the mouse with thumb and forefinger. Flaccidity (or rarely, tenseness) is recorded. […]
Counter-ions that a name gives are not always drawn.
Condition met if ED50 is below 40 mg/kg. Condition not met if not; exact matches included in Condition not met.

Study these solved cases before continuing.
FC(F)c1ccc2c(c1)[C@]13C[C@H]2c2ccccc2[C@H]1CN(CC1CCCC1)C3 (relative stereo) [Example 78, Hydrochloride] ... Condition met
O=Cc1ccc2c(c1)[C@]13C[C@H]2c2ccccc2[C@H]1CN(CC1CCCC1)C3 (relative stereo) [Example 69, Hydrochloride] ... Condition not met
Fc1ccc2c(c1)[C@]13C[C@H]2c2ccccc2[C@H]1CN(CC1CCCC1)C3 (relative stereo) [Example 77, Hydrochloride] ... Condition met
FCc1ccc2c(c1)[C@]13C[C@H]2c2ccccc2[C@H]1CN(CC1CCCC1)C3 (relative stereo) [Example 87, Hydrochloride] ... Condition met
CNC(=O)ON=Cc1ccc2c(c1)[C@]13C[C@H]2c2ccccc2[C@H]1CN(CC1CCCC1)C3 (relative stereo) [Example 84, Hydrochloride] ... Condition not met
Brc1ccc2c(c1)[C@]13C[C@H]2c2ccccc2[C@H]1CN(CC1CCCC1)C3 (relative stereo) [Example 70, Hydrochloride] ... Condition met
Oc1ccc2c(c1)[C@]13C[C@H]2c2ccccc2[C@H]1CN(CC1CCCC1)C3 (relative stereo) [Example 68, Hydrochloride] ... Condition met
CC(=O)Nc1ccc2c(c1)[C@]13C[C@H]2c2ccccc2[C@H]1CN(CC1CCCC1)C3 (relative stereo) [Example 65, Hydrochloride] ... Condition not met

Lab note: confirm whether the reported ED50 for this compound is below 40 mg/kg, equality not counting. compound: N#Cc1ccc2c(c1)[C@]13C[C@H]2c2ccccc2[C@H]1CN(CC1CCCC1)C3 (relative stereo) [Example 85, Hydrochloride]
Condition met

Lab note: confirm whether the reported ED50 for this compound is below 40 mg/kg, equality not counting. compound: COC(=O)c1ccc2c(c1)[C@]13C[C@H]2c2ccccc2[C@H]1CN(CC1CCCC1)C3 (relative stereo)
Condition met

Lab note: confirm whether the reported ED50 for this compound is below 40 mg/kg, equality not counting. compound: CC(O)c1ccc2c(c1)[C@]13C[C@H]2c2ccccc2[C@H]1CN(CC1CCCC1)C3 (stereo partly drawn) [Example 67, Hydrochloride]
Condition met

Lab note: confirm whether the reported ED50 for this compound is below 40 mg/kg, equality not counting. compound: O=[N+]([O-])c1ccc2c(c1)[C@]13C[C@H]2c2ccccc2[C@H]1CN(CC1CCCC1)C3 (relative stereo) [Example 63, Hydrochloride]
Condition met

Lab note: confirm whether the reported ED50 for this compound is below 40 mg/kg, equality not counting. compound: Cl.Clc1ccc2c(c1)C1CN(CC3CCCCC3)CC13CC2c1ccccc13 (stereo not drawn)
Condition met

Lab note: confirm whether the reported ED50 for this compound is below 40 mg/kg, equality not counting. compound: O=C(O)c1ccc2c(c1)[C@]13C[C@H]2c2ccccc2[C@H]1CN(CC1CCCC1)C3 (relative stereo) [Example 73, Hydrochloride]
Condition met

Lab note: confirm whether the reported ED50 for this compound is below 40 mg/kg, equality not counting. compound: Nc1ccc2c(c1)[C@H]1CN(CC3CCCC3)C[C@@]13C[C@@H]2c1ccc(N)cc13 (relative stereo)
Condition met

---

# ASSAY_INFO: in vivo
# RECORDED_CONDITIONS: mouse, in vivo, po
QUANTITY_KIND: LD50 at 24 h

Worked examples, 2 compounds total:
C1=C[C@@H]2C[C@H]1C[C@@H]2CN1C[C@@H]2c3ccccc3[C@@H]3C[C@@]2(C1)c1ccccc13 (relative stereo) ... > 324 mg/kg
CC(C)N1C[C@@H]2c3ccccc3[C@@H]3C[C@@]2(C1)c1ccccc13 (relative stereo) ... 200 mg/kg

Field: next compound
The reported LD50 at 24 h of the compound c1ccc2c(c1)[C@@H]1C[C@@]3(CN(C[C@@H]4C[C@H]5CC[C@@H]4C5)C[C@H]23)c2ccccc21 (relative stereo) was > 324 mg/kg

---

ED50 listing for selected molecules.
# Tested on: female white mice
# ASSAY_INFO: animal or person
# RECORDED_CONDITIONS: Mus musculus, po, read-out: Muscle Tone ED50, Table III; oral, mice
Where a name gives a salt, the structure may show the parent alone.
# value in mg/kg; strip the unit string

CC(=O)c1ccc2c(c1)[C@]13C[C@H]2c2ccccc2[C@H]1CN(CC1CCCC1)C3 (relative stereo) [Example 66, Hydrochloride] ... 12

Field: next molecule
The reported ED50 of the molecule [N-]=[N+]=Nc1ccc2c(c1)[C@]13C[C@H]2c2ccccc2[C@H]1CN(CC1CCCC1)C3 (relative stereo) was 20

---

# Tested on: female white mice
# ASSAY_INFO: animal or person
# RECORDED_CONDITIONS: Mus musculus, po, read-out: Reflexes Lift ED50, Table III; oral, mice
Counter-ions that a name gives are not always drawn.
ED50 listing for selected compounds.
# value in mg/kg; strip the unit string

O=[N+]([O-])c1ccc2c(c1)[C@]13C[C@H]2c2ccccc2[C@H]1CN(CC1CCCC1)C3 (relative stereo) [Example 63, Hydrochloride] ... 100
Brc1ccc2c(c1)[C@]13C[C@H]2c2ccccc2[C@H]1CN(CC1CCCC1)C3 (relative stereo) [Example 70, Hydrochloride] ... 20
CNS(=O)(=O)c1ccc2c(c1)[C@]13C[C@H]2c2ccccc2[C@H]1CN(CC1CCCC1)C3 (relative stereo) [Example 88, Hydrochloride] ... 200

The reported ED50 of the compound Oc1ccc2c(c1)[C@]13C[C@H]2c2ccccc2[C@H]1CN(CC1CCCC1)C3 (relative stereo) [Example 68, Hydrochloride] was 60

The reported ED50 of the compound CC(O)c1ccc2c(c1)[C@]13C[C@H]2c2ccccc2[C@H]1CN(CC1CCCC1)C3 (stereo partly drawn) [Example 67, Hydrochloride] was 21

The reported ED50 of the compound CC(=O)c1ccc2c(c1)[C@]13C[C@H]2c2ccccc2[C@H]1CN(CC1CCCC1)C3 (relative stereo) [Example 66, Hydrochloride] was 20

---

# Test system: female white mice
# ASSAY_INFO: animal or person
# RECORDED_CONDITIONS: Mus musculus, po, read-out: Exploratory Loss Visual ED50, Table III; oral, mice
Structures can show the parent of a compound that is named as a salt.
QUANTITY_KIND: ED50 (mg/kg)
# value in mg/kg; strip the unit string

Worked examples, 3 compounds total:
Cc1ccc2c(c1)[C@]13C[C@H]2c2ccccc2[C@H]1CN(CC1CCCC1)C3 (relative stereo) [Example 89] ... 9
Oc1ccc2c(c1)[C@]13C[C@H]2c2ccccc2[C@H]1CN(CC1CCCC1)C3 (relative stereo) [Example 68, Hydrochloride] ... 12
CC(=O)c1ccc2c(c1)[C@]13C[C@H]2c2ccccc2[C@H]1CN(CC1CCCC1)C3 (relative stereo) [Example 66, Hydrochloride] ... 7

Record [N-]=[N+]=Nc1ccc2c(c1)[C@]13C[C@H]2c2ccccc2[C@H]1CN(CC1CCCC1)C3 (relative stereo) [Example 82] has female white mice ED50 equal to 7

Record CC(O)c1ccc2c(c1)[C@]13C[C@H]2c2ccccc2[C@H]1CN(CC1CCCC1)C3 (stereo partly shown) [Example 67, Hydrochloride] has female white mice ED50 equal to 5

Record CC(=NO)c1ccc2c(c1)[C@]13C[C@H]2c2ccccc2[C@H]1CN(CC1CCCC1)C3 (relative stereo) [Example 71, Hydrochloride] has female white mice ED50 equal to 7

---

# ASSAY_INFO: in vivo
# RECORDED_CONDITIONS: mouse, in vivo, po, Tremors ED50
QUANTITY_KIND: ED50

The reported ED50 of the molecule CN(C)CCCN1c2ccccc2Sc2ccc(Cl)cc21 [Chlopromazine, Chlorpromazine, reference compound] was > 324 mg/kg

---

# Test system: female white mice
# ASSAY_INFO: animal or person
# RECORDED_CONDITIONS: Mus musculus, po, read-out: Muscle Tone ED50, Table 1; oral, mice
log10 of ED50 listing for selected compounds.
Lab note - ED50 converted to log10 from values in mg/kg.

Worked examples, 2 compounds total:
CC(C)CCN1C[C@@H]2c3ccccc3[C@@H]3C[C@@]2(C1)c1ccccc13 (relative stereo) [Example 60] ... 1.30
c1coc(CN2C[C@@H]3c4ccccc4[C@@H]4C[C@@]3(C2)c2ccccc24)c1 (relative stereo) [Example 42] ... 1.30

The reported log10 of ED50 of the compound C1=CCC(CN2CC3c4ccccc4C4CC3(C2)c2ccccc24)CC1 (stereo not drawn) [Example 27] was 0.65

The reported log10 of ED50 of the compound c1ccc2c(c1)[C@@H]1C[C@@]3(CN(C4CC4)C[C@H]23)c2ccccc21 (relative stereo) [Example 46] was 2.30

The reported log10 of ED50 of the compound CCCCCCN1CC2c3ccccc3C3CC2(C1)c1ccccc13 (stereo not drawn) [Example 14] was 0.61

The reported log10 of ED50 of the compound C#CCN1CC2c3ccccc3C3CC2(C1)c1ccccc13 (stereo not drawn) [Example 18] was 2.48

From: patent US4088772A
